This section presents binders with their documented loss in response level of VHH 2 relative to VHH 2 injected alone values.
Target: T1, human FOLR1 recombinant protein (extracellular domain of human folate receptor alpha) (human, UniProt P15328 25-233)
T1 construct: Bought recombinant protein (Sino Biological); also called hFOLR1; FR-alpha
T1 sequence (P15328 25-233): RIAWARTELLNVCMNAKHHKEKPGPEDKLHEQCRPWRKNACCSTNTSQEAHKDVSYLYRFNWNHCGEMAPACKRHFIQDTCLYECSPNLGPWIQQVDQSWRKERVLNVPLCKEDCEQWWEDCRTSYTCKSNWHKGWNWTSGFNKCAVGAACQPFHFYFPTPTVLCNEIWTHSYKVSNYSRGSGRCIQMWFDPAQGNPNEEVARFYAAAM
Assay: SPR dual injection on immobilized human FOLR1, 250 nM; competitor (1st VHH, saturating) A1; by the legend the value is of the 2nd VHH
experimental-readout: loss in response level of VHH 2 relative to VHH 2 injected alone (%)

{"columns": ["binder", "assay-result"],
 "data": [
  ["His6-tagged variant of VHH A3 (VHH, Purified, unlabelled; also called A3 His6-tag) VHH: DVQLVESGGGLVQAGGSLRLSCGVSGNMFSMNLMGWYRQPPGKERDWVAVITKDGSTNYADSVKGRFTISRDNAKNTVSLQMNSLKPEDTAVYYCNVQDGSGWIRAWGWDWGQGTQVTVSS", -97],
  ["His6-tagged variant of VHH A5 (VHH, Purified, unlabelled; also called A5 His6-tag) VHH: DVQLVESGGGLVQAGGSLRLSCGVSGNIFSMNLMGWYRQPPGKEREWVALITKDGSTNYEDSVKGRFTISRDNAKNTVSLQMNSLKPEDTAVYYCNAQDGSGWIRAWGWDWGQGTQVTVSS", -96],
  ["His6-tagged variant of VHH A4 (VHH, Purified, unlabelled; also called A4 His6-tag) VHH: DVQLVESGGGLARAGGSLRLSCAASGRAFSSTYAMGWFRQAPGKEREFVADINWSEGSPMYIDSVKDRFTISRDNARNSLYLQMNSLKSEDTAVYYCAARRFGQGYEYWGQGTQVTVSS", -97],
  ["His6-tagged variant of VHH A2 (VHH, Purified, unlabelled; also called A2 His6-tag) VHH: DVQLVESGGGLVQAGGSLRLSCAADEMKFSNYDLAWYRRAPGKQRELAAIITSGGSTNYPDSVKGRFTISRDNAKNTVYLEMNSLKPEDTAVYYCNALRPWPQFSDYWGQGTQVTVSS", -96]
]}
